The origin of these recorded values is paper PMC7582767.

assayedSystem: CXCR4 (C-X-C chemokine receptor type 4) (Homo sapiens, UniProt P61073)
Construct: purified membrane fractions of HEK293 cells overexpressing CXCR4
Sequence (P61073 whole entry): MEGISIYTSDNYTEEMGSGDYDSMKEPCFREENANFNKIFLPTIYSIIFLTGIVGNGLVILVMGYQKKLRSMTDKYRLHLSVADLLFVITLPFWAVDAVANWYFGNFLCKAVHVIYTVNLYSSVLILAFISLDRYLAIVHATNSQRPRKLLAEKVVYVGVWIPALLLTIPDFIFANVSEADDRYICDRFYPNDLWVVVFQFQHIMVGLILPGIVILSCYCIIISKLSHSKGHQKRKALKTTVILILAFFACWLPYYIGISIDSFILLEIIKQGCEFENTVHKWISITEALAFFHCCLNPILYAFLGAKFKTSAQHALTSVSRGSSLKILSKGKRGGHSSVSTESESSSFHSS
testDescription: […]CXCL12 radioligand displacement on CXCR4 membranes
Type: binding
endpointName: IC50 (µM)

smilesRepresentation: Cc1cc(NC2CCN(C(=O)CCNCC(=O)O)CC2)nc(NCc2nc(CCCNCCCNC3CCCCC3)co2)n1
assayedSystem: CXCR4 (C-X-C chemokine receptor type 4) (Homo sapiens, UniProt P61073)
endpointName: IC50
readoutUnits: µM
reported: 0.0654
